Measured growth accompanies every entry in the list below.
System: SN12C renal
experiment.summary: NCI-60 one-dose screen, 48 h (100 = growth as untreated, 0 = no growth, -100 = all killed)
test.parameters: 10 µM unless noted
This is part of a sample that, as a whole, favours compounds with a hit. Of some 83,000 tested, about 20% had one in any assay.
Number only, in %; omit the unit.

Worked cases, growth given:
compound: O=C(Nc1ccc([N+](=O)[O-])cc1)C(=O)Nc1ccc([N+](=O)[O-])cc1
growth [%]: 102
--
compound: CCOS(=O)(=O)c1ccc([N+](=O)[O-])cc1
growth [%]: 101
--
compound: CN1CCN(C(=S)S)CC1
growth [%]: 108
--
compound: CC(C)C(C)(C)C(=O)C(C)(C)C(C)(C)C
growth [%]: 98.2
--
compound: O=C1Nc2ccccc2/C1=C\c1ccccc1O
growth [%]: 92.5
--
compound: Cc1onc(-c2ccccc2Cl)c1C(=O)Cl
growth [%]: 95.7
--
compound: C=CCOc1ccc(Cl)cc1Cl
growth [%]: 105
--
compound: CSCCC(NC(=O)C(Cl)Cl)C(=O)O (centres undefined)
growth [%]: 97.5

If you can, please state the reported growth value of COC(c1ccc2c(c1)OCO2)C(C)Br (centres undefined) .
100

If you can, please state the reported growth value of `Cn1c(=O)c2[nH]c(CCCCC(=O)O)nc2n(C)c1=O` .
104

If you can, please state the reported growth value of `O=[n+]1ccn([O-])c2ccccc21` .
97.4

* * *

Tested on: HCC-2998 colon
experiment.summary: NCI-60 one-dose screen, 48 h (100 = growth as untreated, 0 = no growth, -100 = all killed)
test.parameters: 10 µM unless noted
The panel holds about 83,000 compounds, 20% with a hit somewhere; the sample as a whole holds those more often.
measure: growth (%)
Number only, in %; omit the unit.

If you can, please state the reported growth value of `O=[N+]([O-])c1ccc2[nH]c(=S)n(/C=C(/c3ccc(Cl)cc3Cl)S(=O)(=O)Cc3ccc(Cl)cc3Cl)c2c1` .
105

If you can, please state the reported growth value of OC(CBr)CCBr (stereo unspecified) .
111

If you can, please state the reported growth value of `Cc1ccc(S(=O)(=O)CCCl)cc1` .
104

If you can, please state the reported growth value of `OCc1cccnc1` .
107

If you can, please state the reported growth value of `C=C(OC(C)=O)c1ccccc1` .
110

* * *

System: SW-620 colon
experiment.summary: NCI-60 one-dose screen, 48 h
test.parameters: 10 µM unless noted
This is part of a sample that, as a whole, favours compounds with a hit. Of some 83,000 tested, about 20% had one in any assay. The source made the active and inactive calls. How the source made its calls: active means growth percent below 10; inactive means the rest.
The reply should name one outcome from active, inactive

Example entries and their recorded answers appear below.
compound: CC(=O)Nc1ccc(O)c(C)c1
category: inactive

compound: CC(=O)OCC1CCC(COC(C)=O)CC1 (stereo not drawn)
category: inactive

compound: CC(=O)NC(CCC(=O)c1ccccc1)C(=O)O (stereo not drawn)
category: inactive

compound: O=Cc1c(O)c2ccccc2[nH]c1=O
category: inactive

compound: C#CCSc1nnnn1-c1ccccc1
category: inactive

// outcome(item) with item = `Cc1cc(CO)c(O)c(CO)c1`
inactive

// outcome(item) with item = `NC(=S)N/N=C/c1ccc(OC(=O)COc2ccc(Cl)cc2)cn1`
inactive

// outcome(item) with item = `O=S(=O)(OCCOS(=O)(=O)c1ccccc1)c1ccccc1`
inactive
